- Experiment summary: folding stability dG unfold from chymotrypsin proteolysis; higher = more stable
Readout name: folding stability dG unfold (kcal/mol)
Your answer is read as kcal/mol, so omit the unit and give the number.

Some entries whose results are on file:
Sequence code | Units of measure | Observed
SAGGMIRVEDTSTSVSIDIEITPLPNGQYKATITTTTTSAKLLPNGTPVTTTTPTTSTVTITPDVPLLSAGG [r13_561_JUSTAS] | kcal/mol | 0.681
SAGMETVTVEVDGATITFVKNEDGTVTAIVTYPNGEVEIYNADGELIRRERLPNGLVVFEFTKEELEKLSAG [r5_457_TrROS_Hall] | kcal/mol | 2.09
SAGGMELVIAVNSKEEAKKAAEEIKKKTPKGFKLEIEIEEYDLKENVEPEDKDIENIKVYLIKVKLESAGGS [r16_795_TrMRF] | kcal/mol | 2.01
SAGSSLNILLELETPEEAEKEAARIKEEIPKKGISVTVTIVSKEELEKLLKENVIELPNGSLKLVLFPSAGG [r19_187_JUSTAS] | kcal/mol | 0.138
SASLPPGQVRSLPVDVTIETPEGQPRFTEPATLEPPPRLVVDVALPLPPGEVTITIRLPGPGVTLTIERSAG [r14_280_JUSTAS] | kcal/mol | 1.53
SAGSSMLDSLTVDTEVTLDPAKGTVLVKTTTTLPDGTVTRTVTTVTVEPLNPPPPPPPRFDPRTGEALESAG [r5_816_JUSTAS] | kcal/mol | 0.207
SAGSMEPGEVLNVTMTFYDTSGNKLGTVNFTFTDEEEAKKKIEELAKEIKEKLNKNVKVTVEINKSPSLSAG [r5_232_JUSTAS] | kcal/mol | 4.59
SAKPIPLKNVTINMYKDEKGNYYFKVTLNDKFIGEFEFETTEEALEGAIELAKEIEKIYGPNNIKIKNESAG [r14_791_TrMRF] | kcal/mol | 2.7

Task: // lookup folding stability dG unfold for SAMVIPAEVRLPGTPEEVLEKAREFADTLAARFRELGFEVVAVELEEIEPGEAVVRLRIVVARPDEEFPSAG [r14_973_TrMRF]
Result: 2.79

Task: What folding stability dG unfold value was documented for this sequence, SAGGSAGGSAGGSKPKVKITIEKNKETNEYTITIEKDGKKYTFVVKNLKPDDPAIKKALSAGGSAGGSAGGS [r4_328_TrROS_Hall] ?
Result: 3.01

* * *

- Experiment summary: folding stability dG unfold from chymotrypsin proteolysis; higher = more stable
The sequences listed here are annotated with their folding stability dG unfold.
The response must be a number in kJ/mol with no trailing unit.

Sequence code | Observed
SAGGDIKFEIGLELLPDGILVIRGSVEVRMGGQSVTYEFIIIVKIKPIPPPPPPPKPKYNPEDGKWKSAGGS [r8_269_TrROS] | 12.1
SAGGSAGGSAAEASVVTFPGDLTAEVTKLPDGSYAVTVTFPENPGATATLTRTPDSVTVTPSAGGSAGGSAG [r3_170_JUSTAS] | -4.59
SAGMTTTVTLKAPDGTTATVTIPPDGNAVMTIETPEGTSTRTVPVPADVSIEEILKEYPNYTIVSREAASAG [r5_259_JUSTAS] | 8.58

Let us examine a further case.
Task: Look up folding stability dG unfold: SAGGSAGSVPSIVIESYDPEKGIVTVSYPATGATYTVEVPPGSTSLTVTVTDADGTPRTFTFPLPGSAGGSA [r2_132_JUSTAS]
Result: 22.2
